# Tested on: Plasmodium falciparum
# Experiment Description: Antimalarial activity against late stage (IV) Plasmodium falciparum NF54 gametocytes transfected with p230p-Luc assessed as reduction in gametocyte viability incubated for 48 hrs by luciferase reporter gene based bioluminescence assay
# Assay type: functional, organism-based
# Experimental Setup: NF54, 48 h
Reported Property: IC50

## Input Write down the reported IC50 of Cl.Cn1cc(CN2CC3(CCN(c4ncc(C(=O)NO)cn4)C3)C2)c2ccc(C#N)cc21 , test system: Plasmodium falciparum.
## Output 12.4 nM

---

Catalogue of Vd/F readings, one per entry.
# Experiment Description: Apparent volume of distribution in BALB/c mouse at 5 mg/kg, ip measured after upto 24 hrs by LC-MS/MS analysis
# Type: ADME, organism-based
# Experimental Setup: in vivo, read-out: Vz/F
Your answer is read as L/kg, so omit the unit and give the number.

## Input What measured Vd/F goes with Cn1cc(CNCC2CCN(c3ncc(C(=O)NO)cn3)CC2)c2ccccc21 [QUISINOSTAT] ?
## Output 245

# input for lookup
## Input What measured Vd/F goes with Cl.Cn1cc(CN2CC3(CCN(c4ncc(C(=O)NO)cn4)C3)C2)c2ccc(C#N)cc21 ?
## Output 10.2

---

# Experiment Description: Selectivity index, ratio of IC50 for cytotoxicity against HEK293T cells to IC50 for antimalarial activity against asexual blood stage wild-type Plasmodium falciparum 3D7
# Format: toxicity, cell-based
# Experimental Setup: human, read-out: Ratio IC50
Reported Property: selectivity ratio

## Input What measured selectivity ratio goes with Cn1cc(CN2CC3(CCN(c4ncc(C(=O)NO)cn4)C3)C2)c2ccncc21 ?
## Output > 1370

## Input What measured selectivity ratio goes with O=C(NO)c1cnc(N2CCC3(CN(Cc4cccnc4)C3)C2)nc1 ?
## Output > 426

# input for lookup
## Input What measured selectivity ratio goes with O=C(NO)c1cnc(N2CCC3(CN(Cc4cccs4)C3)C2)nc1 ?
## Output > 324

---

# Tested On: UniProt:Q13547
# Sequence (Q13547 whole entry, the tested form may be a part): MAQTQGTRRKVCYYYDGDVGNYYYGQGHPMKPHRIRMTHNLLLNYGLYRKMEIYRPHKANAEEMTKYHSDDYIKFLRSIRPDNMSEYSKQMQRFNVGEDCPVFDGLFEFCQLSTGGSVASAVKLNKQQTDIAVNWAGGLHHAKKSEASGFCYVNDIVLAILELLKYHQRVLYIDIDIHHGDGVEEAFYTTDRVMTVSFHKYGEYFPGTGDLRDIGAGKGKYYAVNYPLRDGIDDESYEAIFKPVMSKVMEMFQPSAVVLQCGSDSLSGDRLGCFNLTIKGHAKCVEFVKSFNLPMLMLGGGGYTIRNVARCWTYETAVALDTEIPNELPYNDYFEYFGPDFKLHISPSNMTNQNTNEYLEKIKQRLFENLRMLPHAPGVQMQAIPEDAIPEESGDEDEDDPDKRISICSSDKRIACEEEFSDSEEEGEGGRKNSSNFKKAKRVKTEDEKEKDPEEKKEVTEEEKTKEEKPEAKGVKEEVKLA
# Experiment Description: Inhibition of recombinant human full length C-terminal His/FLAG tagged HDAC1 (1 to 482 residues) expressed in baculovirus-infected Sf9 cells using Ac-peptide as substrate incubated for 4 hrs
Reported Property: IC50
Answer format reminder: number followed by unit.

## Input What measured IC50 goes with Cl.Cn1cc(CN2CC3(CCN(c4ncc(C(=O)NO)cn4)C3)C2)c2ccc(C#N)cc21 ?
## Output 2.2 nM

---

# Tested on: Plasmodium falciparum
# Experiment Description: Antimalarial activity against asexual blood stage quinine-resistant Plasmodium falcipuram C2A assessed as parasite growth inhibition incubated for 72 hrs by SYBR Green I staining based fluorescence analysis
# Assay type: functional, organism-based
Catalogue of pIC50 readings, one per entry.
Worth noting: pIC50 values are minus log10 of concentrations stated in mol/L.

A selection of reference data follows.
## Input What measured pIC50 goes with C[C@H]1[C@@H](O)O[C@@H]2O[C@@]3(C)CC[C@H]4[C@H](C)CC[C@@H]1[C@@]24OO3 ?
## Output 8.68

## Input What measured pIC50 goes with Cl.Cn1cc(CN2CC3(CCN(c4ncc(C(=O)NO)cn4)C3)C2)c2ccc(C#N)cc21 ?
## Output 8.66

## Input What measured pIC50 goes with Cn1cc(CNCC2CCN(c3ncc(C(=O)NO)cn3)CC2)c2ccccc21 ?
## Output 8.60

## Input What measured pIC50 goes with Cl.Cn1cc(CN2CC3(CCN(c4ncc(C(=O)NO)cn4)C3)C2)c2ncccc21 ?
## Output 8.42

# input for lookup
## Input What measured pIC50 goes with Cl.Cn1c(CN2CC3(CCN(c4ncc(C(=O)NO)cn4)C3)C2)nc2ccccc21 ?
## Output 8.42
